Listed here: items and their measured Long-term stability Accuracy.
test: Stability of the analytes in rat plasma QC samples (short-term, autosampler, freeze-thaw, long-term); conditions: 1 ng mL^−1, -20°C for four weeks, n = 6
Give the number first and the unit second.

Compound	Long-term stability Accuracy
Cc1coc2c1C(=O)C(=O)c1c-2ccc2c1CCCC2(C)C	101.23 ± 8.76%
C[C@@H]1C(=O)O[C@H]2C[C@@]34[C@H]5C[C@@H](C(C)(C)C)[C@]36[C@@H](OC(=O)[C@@H]6O)O[C@@]4(C(=O)O5)[C@]21O [GA, ginkgolide A]	98.92 ± 5.81%
COc1cc(-c2oc3cc(O)cc(O)c3c(=O)c2O)ccc1O	98.35 ± 6.27%

Kindly note the recorded Long-term stability Accuracy for O=c1c(O)c(-c2ccc(O)c(O)c2)oc2cc(O)cc(O)c12 , which is 97.57 ± 3.42%

Entry CC(C)(C)[C@]1(O)CC2OC(=O)CC23C(=O)OC2OC(=O)[C@H](O)C231 (stereo partly drawn) [BB, bilobalide] ; Long-term stability Accuracy = 99.15 ± 5.73%

For record O=c1c(O)c(-c2ccc(O)cc2)oc2cc(O)cc(O)c12 the listed Long-term stability Accuracy is 98.70 ± 9.35%

----------
In this section we review reported Long-term stability Accuracy values for a set of compounds.
assay: Stability of the analytes in rat plasma QC samples (short-term, autosampler, freeze-thaw, long-term); settings: 10 ng mL^−1, -20°C for four weeks, n = 6
Numbers only here, please. The scale is %.

Compound	Unit Of Measurement	Assay Value
COc1cc(-c2oc3cc(O)cc(O)c3c(=O)c2O)ccc1O	%	96.44
O=c1c(O)c(-c2ccc(O)cc2)oc2cc(O)cc(O)c12	%	100.48
CC(C)(C)[C@]1(O)CC2OC(=O)CC23C(=O)OC2OC(=O)[C@H](O)C231 (stereo partly drawn) [BB, bilobalide]	%	96.38

The compound listed as O=c1c(O)c(-c2ccc(O)c(O)c2)oc2cc(O)cc(O)c12 shows Long-term stability Accuracy equal to 96.41

The compound listed as Cc1coc2c1C(=O)C(=O)c1c-2ccc2c1CCCC2(C)C shows Long-term stability Accuracy equal to 103.21

get_value(item= C[C@@H]1C(=O)O[C@H]2C[C@@]34[C@H]5C[C@@H](C(C)(C)C)[C@]36[C@@H](OC(=O)[C@@H]6O)O[C@@]4(C(=O)O5)[C@]21O [GA, ginkgolide A] , readout=Long-term stability Accuracy) returns 95.48

----------
experiment: Pharmacokinetics study in rats after oral administration of YDXNT (UPLC-QqQ-MS of plasma); details: male, Sprague-Dawley, rat, plasma, po, 4.8 g kg^−1 d^−1
Readout Kind: MRT
Report field: quantity (unit follows the number).

Compound	Readout Kind	Assay Value
O=c1c(O)c(-c2ccc(O)cc2)oc2cc(O)cc(O)c12	MRT	17.1 h

Looking up Cc1coc2c1C(=O)C(=O)c1c-2ccc2c1CCCC2(C)C , I see its MRT listed as 9.89 h

Form: compound = CC(C)(C)[C@]1(O)CC2OC(=O)CC23C(=O)OC2OC(=O)[C@H](O)C231 (stereo partly shown) [BB, bilobalide] ; MRT = 9.62 h

Memo: O=c1c(O)c(-c2ccc(O)c(O)c2)oc2cc(O)cc(O)c12 , reported MRT: 8.44 h

// provenance: paper PMC9080097
